Test system: SE12228
Type: cell-based
Bridge positions count the residues as written; N and C are the ends. Square brackets hold non-standard residues; d marks the D form. Peptide text beside a SMILES is read from it. dNMeF = CN[C@H](Cc1ccccc1)C(=O)O
OBSERVATION_TYPE: MIC

Short answer for CC[C@@H](C)[C@@H](NC(=O)[C@@H](CCC(N)=O)NC(=O)[C@H](CCCNC(=N)N)NC(=O)[C@@H](NC(=O)[C@@H](Cc1ccccc1)NC)[C@@H](C)CC)C(=O)N[C@H](C(=O)N[C@@H](CO)C(=O)N[C@H]1C(=O)N[C@@H](CCCNC(=N)N)C(=O)N[C@@H](CC(C)C)C(=O)N[C@@H]([C@@H](C)CC)C(=O)O[C@H]1C)[C@@H](C)CC [Compound 29, Arg3-Arg9-Leu10-teixobactin] (H-[dNMeF]IR[dQ][dI]IS[dT]RLI; ester 8-C) : MIC was <0.0625 µg/mL

----------
Tested on: Bacillus Subtilis ATCC 6633
Format: cell-based
Bridge positions count the residues as written; N and C are the ends. Square brackets hold non-standard residues; d marks the D form. Peptide text beside a SMILES is read from it. ξ: configuration not given here. dNMeF = CN[C@H](Cc1ccccc1)C(=O)O; Ile(3ξ) = CCC(C)[C@H](N)C(=O)O
OBSERVATION_TYPE: MIC

Short answer for CC[C@@H](C)[C@@H](NC(=O)[C@@H](CCCNC(=N)N)NC(=O)[C@H](CO)NC(=O)[C@@H](NC(=O)[C@@H](Cc1ccccc1)NC)[C@@H](C)CC)C(=O)N[C@H](C(=O)N[C@@H](CO)C(=O)N[C@H]1C(=O)N[C@@H](CCCNC(=N)N)C(=O)N[C@@H](CC(C)C)C(=O)N[C@@H]([C@@H](C)CC)C(=O)O[C@H]1C)[C@@H](C)CC [Compound 30, D-Arg4-Arg9-Leu10-teixobactin] (H-[dNMeF]IS[dR][dI]IS[dT]RLI; ester 8-C) : MIC was <0.0625 µg/mL

Short answer for CC[C@@H](C)[C@@H](NC(=O)[C@@H](CCC(N)=O)NC(=O)[C@H](CCCNC(=N)N)NC(=O)[C@@H](NC(=O)[C@@H](Cc1ccccc1)NC)[C@@H](C)CC)C(=O)N[C@H](C(=O)N[C@@H](CO)C(=O)N[C@H]1C(=O)N[C@@H](CCCNC(=N)N)C(=O)N[C@@H](CC(C)C)C(=O)N[C@@H]([C@@H](C)CC)C(=O)O[C@H]1C)[C@@H](C)CC [Compound 29, Arg3-Arg9-Leu10-teixobactin] (H-[dNMeF]IR[dQ][dI]IS[dT]RLI; ester 8-C) : MIC was <0.0625 µg/mL

Short answer for CC[C@@H](C)[C@@H](NC(=O)[C@@H](CCC(N)=O)NC(=O)[C@H](CO)NC(=O)[C@@H](NC(=O)[C@@H](Cc1ccccc1)NC)[C@@H](C)CC)C(=O)N[C@H](C(=O)N[C@@H](CO)C(=O)N[C@H]1C(=O)N[C@@H](CCCNC(=N)N)C(=O)N[C@@H](CC(C)C)C(=O)N[C@@H]([C@@H](C)CC)C(=O)O[C@H]1C)[C@@H](C)CC [Compound 27, Arg9-Leu10-teixobactin] (H-[dNMeF]IS[dQ][dI]IS[dT]RLI; ester 8-C) : MIC was <0.0625 µg/mL

Short answer for CC[C@@H](C)[C@@H](NC(=O)[C@@H](CCCNC(=N)N)NC(=O)[C@H](CO)NC(=O)[C@@H](NC(=O)[C@@H](Cc1ccccc1)NC)[C@@H](C)CC)C(=O)N[C@H](C(=O)N[C@@H](CO)C(=O)N[C@H]1C(=O)N[C@@H](C)C(=O)N[C@@H](CC(C)C)C(=O)N[C@@H]([C@@H](C)CC)C(=O)O[C@H]1C)[C@@H](C)CC [Compound 26, D-Arg4-Leu10-teixobactin] : MIC was 0.125 µg/mL

Short answer for CC[C@@H](C)[C@@H](NC(=O)[C@@H](CCCNC(=N)N)NC(=O)[C@H](CCCNC(=N)N)NC(=O)[C@@H](NC(=O)[C@@H](Cc1ccccc1)NC)[C@@H](C)CC)C(=O)N[C@H](C(=O)N[C@@H](CO)C(=O)N[C@H]1C(=O)N[C@@H](C)C(=O)N[C@@H](CC(C)C)C(=O)N[C@@H]([C@@H](C)CC)C(=O)O[C@H]1C)[C@@H](C)CC [Compound 28, Arg3-D-Arg4-Leu10-teixobactin] (H-[dNMeF]IR[dR][dI]IS[dT]ALI; ester 8-C) : MIC was <0.0625 µg/mL

Short answer for CC[C@@H](C)[C@@H](NC(=O)[C@@H](CCC(N)=O)NC(=O)[C@H](CCCNC(=N)N)NC(=O)[C@@H](NC(=O)[C@@H](Cc1ccccc1)NC)[C@@H](C)CC)C(=O)N[C@H](C(=O)N[C@@H](CO)C(=O)N[C@H]1C(=O)N[C@@H](C)C(=O)N[C@@H](CC(C)C)C(=O)N[C@@H]([C@@H](C)CC)C(=O)O[C@H]1C)[C@@H](C)CC [Compound 25, Arg3-Leu10-teixobactin] (H-[dNMeF]IR[dQ][dI]IS[dT]ALI; ester 8-C) : MIC was <0.0625 µg/mL

Short answer for CCC(C)[C@@H]1NC(=O)[C@H](CCCNC(=N)N)NC(=O)[C@H](NC(=O)[C@H](CO)NC(=O)[C@@H](NC(=O)[C@H](NC(=O)[C@@H](CCC(N)=O)NC(=O)[C@H](CO)NC(=O)[C@@H](NC(=O)[C@@H](Cc2ccccc2)NC)[C@@H](C)CC)[C@H](C)CC)[C@@H](C)CC)[C@H](C)OC(=O)[C@H]([C@@H](C)CC)NC1=O (stereo partly shown) [Compound 34, Arg9-Ile10-teixobactin] (H-[dNMeF]IS[dQ][dI]IS[dT]R[Ile(3ξ)]I; ester 8-C) : MIC was 0.125 µg/mL

----------
Tested on: Staphylococcus saprophyticus ATCC 49453
Assay type: cell-based
Details: ATCC 49453
Bridge positions count the residues as written; N and C are the ends. Square brackets hold non-standard residues; d marks the D form. Peptide text beside a SMILES is read from it. dNMeF = CN[C@H](Cc1ccccc1)C(=O)O
OBSERVATION_TYPE: MIC

Short answer for CC[C@@H](C)[C@@H](NC(=O)[C@@H](CCCNC(=N)N)NC(=O)[C@H](CCCNC(=N)N)NC(=O)[C@@H](NC(=O)[C@@H](Cc1ccccc1)NC)[C@@H](C)CC)C(=O)N[C@H](C(=O)N[C@@H](CO)C(=O)N[C@H]1C(=O)N[C@@H](CCCNC(=N)N)C(=O)N[C@@H](CC(C)C)C(=O)N[C@@H]([C@@H](C)CC)C(=O)O[C@H]1C)[C@@H](C)CC [Compound 31, Arg3-D-Arg4-Arg9-Leu10-teixobactin] (H-[dNMeF]IR[dR][dI]IS[dT]RLI; ester 8-C) : MIC was <0.0625 µg/mL

----------
Tested on: Staphylococcus saprophyticus ATCC 49453
Type: cell-based
Details: ATCC 49453
Procedure: Bacteria were grown on Mueller Hinton broth (oxoid). All incubations were at 37° C. Dilutions were carried out using Mueller Hinton. […] This process was repeated up to well 11. […] This was repeated three times. […] Results are tabulated in the Examples.
Bridge positions count the residues as written; N and C are the ends. Square brackets hold non-standard residues; d marks the D form. Peptide text beside a SMILES is read from it. dNMeF = CN[C@H](Cc1ccccc1)C(=O)O
MIC for assorted compounds

Here is how some compounds turned out for MIC.
COMPOUND | OBSERVATION_TYPE | OBSERVED_VALUE
CC[C@@H](C)[C@@H](NC(=O)[C@@H](CCC(N)=O)NC(=O)[C@H](CCCNC(=N)N)NC(=O)[C@@H](NC(=O)[C@@H](Cc1ccccc1)NC)[C@@H](C)CC)C(=O)N[C@H](C(=O)N[C@@H](CO)C(=O)N[C@H]1C(=O)N[C@@H](CCCNC(=N)N)C(=O)N[C@@H](CC(C)C)C(=O)N[C@@H]([C@@H](C)CC)C(=O)O[C@H]1C)[C@@H](C)CC [Compound 29, Arg3-Arg9-Leu10-teixobactin] (H-[dNMeF]IR[dQ][dI]IS[dT]RLI; ester 8-C) | MIC | <0.0625 µg/mL
CC[C@@H](C)[C@@H](NC(=O)[C@@H](CCC(N)=O)NC(=O)[C@H](CO)NC(=O)[C@@H](NC(=O)[C@@H](Cc1ccccc1)NC)[C@@H](C)CC)C(=O)N[C@H](C(=O)N[C@@H](CO)C(=O)N[C@H]1C(=O)N[C@@H](CCCNC(=N)N)C(=O)N[C@@H](CC(C)C)C(=O)N[C@@H]([C@@H](C)CC)C(=O)O[C@H]1C)[C@@H](C)CC [Compound 27, Arg9-Leu10-teixobactin] (H-[dNMeF]IS[dQ][dI]IS[dT]RLI; ester 8-C) | MIC | <0.0625 µg/mL

Short answer for CC[C@@H](C)[C@@H](NC(=O)[C@@H](CCCNC(=N)N)NC(=O)[C@H](CO)NC(=O)[C@@H](NC(=O)[C@@H](Cc1ccccc1)NC)[C@@H](C)CC)C(=O)N[C@H](C(=O)N[C@@H](CO)C(=O)N[C@H]1C(=O)N[C@@H](CCCNC(=N)N)C(=O)N[C@@H](CC(C)C)C(=O)N[C@@H]([C@@H](C)CC)C(=O)O[C@H]1C)[C@@H](C)CC [Compound 30, D-Arg4-Arg9-Leu10-teixobactin] (H-[dNMeF]IS[dR][dI]IS[dT]RLI; ester 8-C) : MIC was <0.0625 µg/mL
